# selectivity ratio per record follows
method-notes: Therapeutic index, ratio of CC50 for uninfected human PBMC to EC50 for HIV1 infected in human PBMC
Assay type: toxicity
measurement-context: PBMC (uninfected for CC50, HIV-1 infected for EC50)
Where a name gives a salt, the structure may show the parent alone.
value-type: selectivity ratio

[[record]]
molecule = "CCCCCCCCCCCCCCCCSSCCOP(=O)(O)CO[C@H](C)Cn1cnc2c(N)ncnc21"
val = 22000

[[record]]
molecule = "CC(C)OC(=O)OCOP(=O)(CO[C@H](C)Cn1cnc2c(N)ncnc21)OCOC(=O)OC(C)C [TENOFOVIR DISOPROXIL FUMARATE]"
val = 9500

[[record]]
molecule = "CCCCCCCCCCCCCCCCSSCCCCOP(=O)(O)CO[C@H](C)Cn1cnc2c(N)ncnc21"
val = "> 100000"

[[record]]
molecule = "CCCCCCCCCCCCSSCCCCCCOP(=O)(O)CO[C@H](C)Cn1cnc2c(N)ncnc21"
val = "> 7000"

